Every entry's value here was drawn from PubChem BioAssay (NCI).

- System: SNB-19 CNS
- Test summary: NCI tumour cell line growth inhibition, 48 h
Form field: TGI (one value per entry).

Query: # lookup: TGI of O=C(NC12CC3CC(CC(C3)C1)C2)C(=O)c1c[nH]c2ccc(Cl)cc12
Result: > 100 µM

Query: Record: CCN(CC)CCNC(=O)c1cn2ncnc(Oc3ccc(NC(=O)Nc4ccc(Cl)c(C(F)(F)F)c4)c(F)c3)c2c1C
Result: 3.5 µM

###

- Tested on: BT-549 breast
- Test summary: NCI tumour cell line growth inhibition, 48 h
Measurement label: TGI (µM)
Write down the numeric answer in µM and omit the unit.

Query: Observed TGI on BT-549 breast for C[C@H]1[C@H](C)CC[C@]2(C(=O)NCCNCCN)CC[C@]3(C)C(=CC[C@@H]4[C@@]5(C)CCC(=O)C(C)(C)[C@@H]5CC[C@]43C)[C@H]12 , please.
Result: 24.1

Query: Record: CCCCCCCCCCCC[n+]1ccccc1 (tested in a mixture with another compound)
Result: 1.06

Query: Record: Cc1ccccc1Nc1nc2c(s1)C(=O)c1ccccc1C2=O
Result: 6.57
